# TEST SYSTEM: hMC-4R (Homo sapiens, UniProt P32245)
# Construct: expressed in transfected cells; host or cells: HEK293
# Sequence (P32245 whole entry): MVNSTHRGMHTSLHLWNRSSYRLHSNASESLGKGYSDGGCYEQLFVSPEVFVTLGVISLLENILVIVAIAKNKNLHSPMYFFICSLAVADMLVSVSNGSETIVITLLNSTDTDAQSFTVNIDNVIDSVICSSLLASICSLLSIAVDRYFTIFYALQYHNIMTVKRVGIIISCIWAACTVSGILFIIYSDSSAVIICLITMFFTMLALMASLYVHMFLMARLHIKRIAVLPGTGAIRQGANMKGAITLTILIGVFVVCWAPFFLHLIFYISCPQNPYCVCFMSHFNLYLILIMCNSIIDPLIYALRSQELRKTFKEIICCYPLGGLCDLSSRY
# ASSAY DETAILS: Functional assay (membrane based cAMP fluorescence polarization assay, agonistic activity)
# Format: biochemical
# PARTICULARS: cAMP produced compared to stimulation with NDP-alpha-MSH; read-out: % activation functional assay
Attribute: Emax

{"MOLECULE": "NC(Cc1ccc(Cl)cc1)C(=O)N1CCC(c2ccc(F)cc2CCCN2CCCC2)CC1 (stereo not shown) [Example 114]", "Emax [%]": 89}
{"MOLECULE": "NC(Cc1ccc(Cl)cc1Cl)C(=O)N1CCC(c2cc(F)c(F)cc2OCCN2CCCC2)CC1 (stereo not shown) [Example 7]", "Emax [%]": 29}
{"MOLECULE": "NC(Cc1ccc(Cl)cc1)C(=O)N1CCC(c2cc(F)c(F)cc2OCCN2CCCCC2)CC1 (stereo not shown) [Example 112]", "Emax [%]": 73}
{"MOLECULE": "NC(Cc1ccc(Cl)cc1)C(=O)N1CCC(c2ccccc2OCCN2CCCC2)CC1 (stereo not shown) [Example 101]", "Emax [%]": 78}
{"MOLECULE": "NC(Cc1ccc(Cl)cc1)C(=O)N1CCC(c2ccccc2CCCN2CCCC2)CC1 (stereo not shown) [Example 113]", "Emax [%]": 78}
{"MOLECULE": "NC(Cc1ccc(Cl)cc1)C(=O)N1CCC(c2cc(Cl)ccc2OCCN2CCCC2)CC1 (stereo not shown) [Example 106]", "Emax [%]": 87}
{"MOLECULE": "NC(Cc1ccc(Cl)cc1)C(=O)N1CCC(c2ccc(Cl)cc2OCCCN2CCCCC2)CC1 (stereo not shown) [Example 110]", "Emax [%]": 73}
{"MOLECULE": "NC(Cc1ccc(Cl)cc1Cl)C(=O)N1CCC(c2ccc(F)cc2OCCN2CCCC2)CC1 (stereo not shown) [Example 2]", "Emax [%]": 22}
{"MOLECULE": "NC(Cc1ccc(Cl)cc1)C(=O)N1CCC(c2cc(F)ccc2OCCN2CCCC2)CC1 (stereo not shown) [Example 105]", "Emax [%]": 90}
{"MOLECULE": "NC(Cc1ccc(Cl)cc1)C(=O)N1CCC(c2cc(F)c(F)cc2OCCN2CCCC2)CC1 (stereo not shown) [Example 111]", "Emax [%]": 75}
